molecular target: Axl (Homo sapiens (Human), UniProt P30530); assay: Axl binding assay
Sequence (P30530 26-894): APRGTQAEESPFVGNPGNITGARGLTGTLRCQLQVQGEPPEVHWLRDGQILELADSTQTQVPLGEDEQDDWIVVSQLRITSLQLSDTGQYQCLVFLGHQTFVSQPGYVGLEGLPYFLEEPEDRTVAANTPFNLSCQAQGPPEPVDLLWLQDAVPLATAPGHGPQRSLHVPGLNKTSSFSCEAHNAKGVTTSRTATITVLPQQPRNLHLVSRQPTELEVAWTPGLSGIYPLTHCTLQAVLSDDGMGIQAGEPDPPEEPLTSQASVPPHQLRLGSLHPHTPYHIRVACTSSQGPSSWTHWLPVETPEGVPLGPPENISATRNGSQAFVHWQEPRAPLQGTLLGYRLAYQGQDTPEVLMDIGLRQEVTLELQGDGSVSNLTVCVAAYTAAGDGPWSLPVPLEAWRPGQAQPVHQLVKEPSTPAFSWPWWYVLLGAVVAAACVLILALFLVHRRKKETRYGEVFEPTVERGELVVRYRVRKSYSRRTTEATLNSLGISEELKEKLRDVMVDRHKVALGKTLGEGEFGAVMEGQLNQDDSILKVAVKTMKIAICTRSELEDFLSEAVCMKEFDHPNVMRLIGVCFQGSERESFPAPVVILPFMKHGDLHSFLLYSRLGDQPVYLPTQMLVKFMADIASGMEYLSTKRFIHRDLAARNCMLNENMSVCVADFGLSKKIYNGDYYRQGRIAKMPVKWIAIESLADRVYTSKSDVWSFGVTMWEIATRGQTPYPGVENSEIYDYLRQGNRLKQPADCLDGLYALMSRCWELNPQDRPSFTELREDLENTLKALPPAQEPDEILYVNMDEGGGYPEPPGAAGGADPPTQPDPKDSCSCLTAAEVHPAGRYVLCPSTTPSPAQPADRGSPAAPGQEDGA
pIC50: −log10 of the molar value.
valueKind: pIC50

Reference set, count: 6
| entrySmiles | pIC50 |
| --- | --- |
| COc1cc2c(Oc3ccc(NC(=O)c4nn(-c5ccc(F)cc5)cc4OC(C)C)cc3F)ccnc2cc1OCCCN1CCOCC1 | > 6.30 |
| CCOc1cn(-c2ccc(F)cc2Cl)nc1C(=O)Nc1ccc(Oc2ccnc3cc(OC)c(OC)cc23)cn1 | > 6.30 |
| COc1cc2nccc(Oc3ccc(NC(=O)c4nn(-c5ccc(F)cc5)cc4OC(C)C)cc3C)c2cc1OC | > 6.30 |
| CCOc1cn(-c2cccc([N+](=O)[O-])c2)nc1C(=O)Nc1ccc(Oc2ccnc3cc(OC)c(OC)cc23)cn1 | > 6.30 |
| COc1cc2nccc(Oc3ccc(NC(=O)c4nn(-c5ccc(F)cc5)cc4OCC4CC4)cc3F)c2cc1OC | > 6.30 |
| COc1cc2c(Oc3ccc(N)cc3F)ccnc2cc1OCC1CCN(C(=O)OC(C)(C)C)CC1 | < 5.00 |

Lookup: I have this molecule here, CCOc1cn(-c2ccc(F)cc2C)nc1C(=O)Nc1ccc(Oc2ccnc3cc(OC)c(OC)cc23)c(C)c1 , and I need its recorded pIC50.
Found: > 6.30

Lookup: Let us now turn to COc1cc2nccc(Oc3ccc(NC(=O)c4cc(C)on4)cc3F)c2cc1OC
Found: 5.30 to 6.30

---

biological target: UniProtKB P30530; assay: Axl binding assay
compounds and their reported IC50

Below are worked cases with known answers.
| compound | obsValue |
| --- | --- |
| CCOc1cn(-c2ccc(F)cc2Br)nc1C(=O)Nc1ccc(Oc2ccnc3cc(OCCCN4CCOCC4)c(OC)cc23)c(F)c1 | < 500 nM |
| COc1cc2c(Oc3ccc(NC(=O)c4nc(-c5ccccc5OC)cs4)nc3)ccnc2cc1OCC1CCNCC1 | 500 to 5000 nM |
| COc1cc(Oc2ccnc3cc(OC)c(OC)cc23)ccc1N | > 10000 nM |
| CCOc1cn(-c2ccc(F)cc2CCN(C)C)nc1C(=O)Nc1ccc(Oc2ccnc3cc(OC)c(OC)cc23)c(F)c1 | < 500 nM |
| CCOc1cn(-c2ccc(F)cc2)nc1C(=O)Nc1ccc(Oc2ccnc3cc(OC)c(OC)cc23)c(F)c1 | < 500 nM |

Lookup: I am curious: what IC50 value has been reported for CCOc1cn(-c2ccc(F)cc2)nc1C(=O)Nc1ccc(Oc2ccnc3cc(OCCCN4CCNCC4)c(OC)cc23)c(F)c1 ?
Found: < 500 nM

Lookup: // query: COc1cc2c(Oc3ccc(NC(=O)c4ccn(C)n4)cc3F)ccnc2cc1OCCCN1CCOCC1
Found: 500 to 5000 nM

Lookup: Lookup CCOc1cn(-c2ccc(F)cc2C)nc1C(=O)Nc1ccc(Oc2ccnc3cc(OCC4CCN(CC)CC4)c(OC)cc23)c(F)c1
Found: < 500 nM

Lookup: Then this compound: COc1cc2nccc(Oc3ccc(NC(=O)c4ccncc4)cc3)c2cc1OC [Ref5, reference compound]
Found: > 10000 nM
